We begin with a simple list: items and their reported IC50.
# Tested on: UniProt:P48048
# Sequence (P48048 whole entry): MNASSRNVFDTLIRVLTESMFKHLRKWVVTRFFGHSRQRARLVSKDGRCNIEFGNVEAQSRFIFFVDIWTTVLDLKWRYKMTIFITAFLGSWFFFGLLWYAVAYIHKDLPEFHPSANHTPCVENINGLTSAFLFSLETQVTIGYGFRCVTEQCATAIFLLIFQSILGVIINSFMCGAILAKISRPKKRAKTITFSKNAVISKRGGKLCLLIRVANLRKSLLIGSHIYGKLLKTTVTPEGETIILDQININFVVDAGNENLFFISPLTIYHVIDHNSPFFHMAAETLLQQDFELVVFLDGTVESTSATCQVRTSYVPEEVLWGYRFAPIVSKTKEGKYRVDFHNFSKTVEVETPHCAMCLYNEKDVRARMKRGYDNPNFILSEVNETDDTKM
# Assay remarks: Inhibition of ROMK (unknown origin) after 30 mins by 86Rb+ efflux assay
The answer is to be given in nM; state only the numeric part.

Reference set (4 entries):
Compound	Scale unit	Experimental result
Cc1c(C(O)CN2CCN(C(=O)Cc3ccc(-n4cnnn4)cc3)CC2)ccc2c1COC2=O (stereo not given)	nM	510
Cc1c(C(F)CN2CCN(C(=O)Cc3ccc(-n4cnnn4)cc3)CC2)ccc2c1COC2=O (stereo not given)	nM	69
Cc1c(C(C)CN2CCN(C(=O)Cc3ccc(-n4cnnn4)cc3)CC2)ccc2c1COC2=O (stereo not given)	nM	160
Cc1c(C(F)CN2CCN(CC(F)c3ccc4c(c3C)COC4=O)CC2)ccc2c1COC2=O (stereo not given)	nM	96

query: Output reported IC50 of the compound Cc1c(CCN2CCN(CC(O)c3ccc4c(c3C)COC4=O)CC2)ccc2c1COC2=O (stereo not given) on UniProt:P48048.
result: 34
